# Test system: OVCAR-4
# assay_protocol: NCI tumour cell line growth inhibition, 48 h
The source made the active and inactive calls. No stated cut-off is given here; in the data, active = GI50 up to about 1.1 µM and inactive = higher.
parameter_measured: GI50

// worked examples, GI50 included
compound: c1ccc(/N=C2\c3ccccc3CN2c2ccccn2)nc1
parameter_measured: GI50
recorded_value: > 100 µM (inactive)

compound: CC(=O)N1c2ccccc2Sc2cc(C(O)(C(F)(F)F)C(F)(F)F)ccc21
parameter_measured: GI50
recorded_value: > 10 µM (inactive)

compound: Cc1c2cc[n+](C)cc2c(C)c2c1[nH]c1ccc(Oc3ccccc3)cc12
parameter_measured: GI50
recorded_value: 2.56 µM (inactive)

Please give the measured GI50 for this compound: "COc1cccc(NC(=O)CSc2nnc(-c3ccc(/N=C\c4ccc(Cl)cc4)cc3)o2)c1"
37.4 µM (inactive)

What would you report for CC(=O)OCC1OC(OCCCOP(=S)(OCCC#N)OCC2OC(n3ccc(N)nc3=O)C(OC(=O)c3ccccc3)C2OC(=O)c2ccccc2)C(OC(C)=O)C(OC(C)=O)C1OC(C)=O (stereo not drawn) ?
> 100 µM (inactive)

# repeat for "C=COCCCOc1ccccc1"
> 100 µM (inactive)

And "C=C[C@]1(C)C[C@@H](OC(=O)CO)[C@@]2(C)[C@H](C)CC[C@]3(CCC(=O)[C@H]32)[C@@H](C)[C@@H]1O" ?
> 100 µM (inactive)

And what about the compound "COc1ccc(-n2cnc3c2=NC(C)(C)NC=3C(N)=O)c(OC)c1" ?
> 100 µM (inactive)

Also check "Cc1ccc(S(=O)(=O)n2cncc2CO)cc1"
> 100 µM (inactive)

Subsequent entry: "COc1cc(CCC(=O)O)c2cc3ccccc3cc2c1O"
15.6 µM (inactive)

Try this compound too: "NNC(=O)c1nn[nH]c1SSc1[nH]nnc1C(=O)NN"
> 100 µM (inactive)

Next entry: "CCN1C[C@]2(COC)[C@H](O)C[C@H](OC)[C@]34C1[C@H]([C@H](OC)[C@H]23)[C@]1(OC(C)=O)[C@H]2[C@@H](OC(=O)c3ccccc3)[C@](O)(C[C@H]24)[C@@H](OC)[C@@H]1O"
> 100 µM (inactive)

COC1(C)CP(=O)(OC(C)C)CC(C)=C1Cl (stereo not drawn) ?
15 µM (inactive)
